Tested on: K4 kissing-loop RNA reporter;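 further: bound reporter read as fluorescence of individual clusters on recovered sequencing chips by microscopy, with normalized cluster intensities fitted with a binding model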
Test: apparent KD of K4 kissing-loop reporter; higher = weaker reporter binding
Conditions: Eterna round: R107; input ligand: theophylline 20 uM
Measured apparent KD of K4 kissing-loop reporter accompanies every entry in the list below.
Enter your answer as a number in nM; do not include the unit.

Here's what some known entries look like.
Query sequence	Tested target	Units label	Observed measurement
CGGAGUGAUGUUCCUUUUAUUAAUUAUUAACGAGGACCGGUACGGCCGCCACUCGAUUUAGCUUUUAUUUAAUGCUUGGAUGUUU [JR_SSTryptoA_Sub003]	K4 kissing-loop RNA reporter	nM	246
UGUCAUUGGUCUGAUACCAGGUUGAUCGGUAAACGAUCUCCUGGAGUGAUGUUCCAAAAUAUCCCUUGGCAGCAGACCGAUGACU [TheoBS 6 #SwitchBubble #StaticStem]	K4 kissing-loop RNA reporter	nM	492
GCGCGUCAUGUCAGCGGUGACUAUGUCGAUACCAGCAGGGAAACCUGCCCUUGGCAGCGACGCGCUGGAGUGAUGUUCCGACGGC [#2 Exclusion - Theophylline A Attempt #8 (HarryS)]	K4 kissing-loop RNA reporter	nM	173
GCCAGCAGUACUGAUACCAGACUGCAUGUAGUGAUGUUGCAUAAGGGCAUAGAUGUCUCAGUCCCUUGGCAGCGGUACUGUUGCA [#10 K4 Theophylline B Same State]	K4 kissing-loop RNA reporter	nM	199

Pending sequence:
Lookup: Give recorded apparent KD of K4 kissing-loop reporter. UUGAGCCGGACGGAAGUCCGGCUCUGCGAGCGAGGACCGGUACGGCCGCCACUCGGUGCAGUGAUGUUGCAUGGCCGCAAGGCCG [#2 Exclusion - Tryptophan A Attempt #4 (HarryS)]
Found: 208

----------
System: MS2 coat protein
Assay: apparent KD of MS2 coat protein; higher = weaker reporter binding
Conditions: Eterna round: R107; input ligand: theophylline 2 mM
Measured apparent KD of MS2 coat protein accompanies every entry in the list below.
Please answer in the form of a number followed by its unit of measurement.

Query sequence	apparent KD of MS2 coat protein
UUAUAAGUACCGGUCCUCAGAUCCUCAUGACGAGGACCGGUACGGCCGCCACUCGAAACAUGAGGAUCACCCAUGUAAUAAUAUU [Brourdmod07]	23.3 nM
CCAUAGCUAGGAAGGAGCGCAUACUUCACAUGAGGAUCACCCAUGUCGAGACGUGAGUCAGUGCAGGUAGGUCGCCUAGCUAUGG [Same State - Arginine B (Freestyle 29)]	25.5 nM
GGUAACUCUACGGCCGCCACUGAACAUGAGGAUCACCCAUGUAAUGUUCAGAUUUUUUUUUUUUACAGGACCGGGUAGUGUUACC [Tryptophan B 4]	275 nM
AUACAUGAGGAUCACCCAUGUCUUACGGAAGGAGCGAUCAAGAGAUCAGGUAGGUCGCCGUACAUGAGGAUCACCCAUGUAGGCG [EAA NP+V+V2 #9 DOUBLE]	35.7 nM
ACAUGAGGAUCACCCAUGUAGUGGCACGAUACCAGCUGAUCCCGUGGCCCUUGGCAGCGUCCGGUGUGGUGCGCCGGGAUGGAGC [ZSZMULLIN]	40.7 nM
AGAGUCAGACAAAAGUCUGGCUCAGCCGAAGGAGCGUCCGAAAGGACAGGUAGGUCGCGGUUACUUGAGGAUCACCCAAGUUCCU [ArgAS 26 #OpenEnded #AlternativeMS2]	177 nM
UUGUUGUUUGGAAGGAGCGUGUAUGAUUAAGAACAUGAGGAUCACCCAUGUUGUAGGGUAGCACAGGUAGGUCGCCGGGUGGUGG [11.V]	31.2 nM
CACAUGAGGAUCACCCAUGUCUGAACUGAAGGAGCGCUAAAUAAGGCAGGUAGGUCGCGGAAUCGUGUGUGCAUAUGCACACGCG [9.U]	25.3 nM

Lookup: Give recorded apparent KD of MS2 coat protein. AUUCUUUACUGAAGGAGCGUCAUUCUUACAUGAGGAUCACCCAUGUUUAUUCUUUAUGAUUGACAGGUAGGUCGCAGAUUUUUUA [#11 Same State - Arginine B]
Found: 19 nM

Lookup: Give recorded apparent KD of MS2 coat protein. AGUCUCAGUGGAAGGAGCGUCGCGACUGCUACAUGAGGAUCACCCAUGUCGCCUUGAGCGCGACAGGUAGGUCGCCACGGUAGGC [Erraraorle]
Found: 20.8 nM

Lookup: Give recorded apparent KD of MS2 coat protein. GGUUACUCUACGGCCGCCACUGGGCAUGUAAAUAACAUGAGGAUCACCCAUGUGGAAUAAAAUUACAGGACCGGGUAGUGUAACC [Tryptophan B 22]
Found: 352 nM

Lookup: Give recorded apparent KD of MS2 coat protein. GGGUAAGAUCCGGAUACCAGCGAACAUGAGGAUCACCCAUGUGACCUAAGAUAGGCUAAACGCCCUUGGCAGCCGAAAUAGCGUU [Same State Theophylline B GF 5]
Found: 38.2 nM
